From: patent US20210137890A1

Study system: AR (Homo sapiens)
Sequence (P10275 1-920): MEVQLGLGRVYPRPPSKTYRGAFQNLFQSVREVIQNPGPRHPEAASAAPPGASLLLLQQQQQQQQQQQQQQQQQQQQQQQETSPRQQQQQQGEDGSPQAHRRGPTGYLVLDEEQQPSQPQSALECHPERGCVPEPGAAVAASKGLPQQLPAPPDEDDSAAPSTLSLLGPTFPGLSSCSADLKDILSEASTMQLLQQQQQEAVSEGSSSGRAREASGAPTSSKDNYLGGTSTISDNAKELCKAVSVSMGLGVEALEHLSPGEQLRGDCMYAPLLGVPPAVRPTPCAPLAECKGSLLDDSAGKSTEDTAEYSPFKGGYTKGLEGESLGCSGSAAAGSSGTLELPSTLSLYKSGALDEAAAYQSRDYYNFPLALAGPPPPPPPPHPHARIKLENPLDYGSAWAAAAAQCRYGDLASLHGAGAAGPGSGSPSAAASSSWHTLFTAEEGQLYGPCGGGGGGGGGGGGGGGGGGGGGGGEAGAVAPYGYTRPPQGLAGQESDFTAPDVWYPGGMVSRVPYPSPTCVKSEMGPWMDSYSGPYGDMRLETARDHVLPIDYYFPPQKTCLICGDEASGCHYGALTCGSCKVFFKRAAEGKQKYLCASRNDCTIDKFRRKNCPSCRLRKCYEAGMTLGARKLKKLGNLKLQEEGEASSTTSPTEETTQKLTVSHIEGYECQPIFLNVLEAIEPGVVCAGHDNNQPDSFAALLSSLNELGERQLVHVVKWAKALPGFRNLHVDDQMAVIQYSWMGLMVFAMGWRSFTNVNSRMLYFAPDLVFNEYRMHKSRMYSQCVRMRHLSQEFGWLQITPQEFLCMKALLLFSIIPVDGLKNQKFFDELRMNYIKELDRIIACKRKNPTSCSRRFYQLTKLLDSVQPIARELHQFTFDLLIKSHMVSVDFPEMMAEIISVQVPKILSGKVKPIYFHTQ
Measure: pKi
When answering, recall that pKi equals minus log10 of the concentration in mol/L, and write that number alone.

Problem: Form field: reported pKi of `CC1(C)C(=O)N(c2ccc(C#N)c(C(F)(F)F)c2)C(=S)N1c1ccc(C(N)=O)c(F)c1`
Solution: 7.24

* * *

Run description: Brain penetration of parental drug and metabolites in mice (PD study)
Run conditions: mouse, brain/plasma, po, 10 mg/kg
Measure: Kp at 24 h
Lab note: record just the number, no unit beside it.

Problem: Form field: reported Kp at 24 h of CNC(=O)c1ccc(N2C(=S)N(c3ccc(C#N)c(C(F)(F)F)c3)C(=O)C2(C)C)cc1F [enzalutamide]
Solution: 0.31
